biological target: PARLΔ77 (Homo sapiens, UniProt Q9H300); construct: GFP-hexahistidine (behind a TEV cleavage site) (C, cleaved yes); made in house; host or cells: Pichia pastoris; assay: Multiplex substrate profiling by mass spectrometry (MSP-MS), PARLΔ77 in DDM; format: biochemical; conditions: PARLΔ77 1 μM, 0.1% DDM, peptides 0.5 μM each, pH 7.0, 240 vs 0 min, LC-MS/MS, quadruplicate; TDP160: product INDFLVR.T
Sequence (Q9H300 78-379, stated change not applied): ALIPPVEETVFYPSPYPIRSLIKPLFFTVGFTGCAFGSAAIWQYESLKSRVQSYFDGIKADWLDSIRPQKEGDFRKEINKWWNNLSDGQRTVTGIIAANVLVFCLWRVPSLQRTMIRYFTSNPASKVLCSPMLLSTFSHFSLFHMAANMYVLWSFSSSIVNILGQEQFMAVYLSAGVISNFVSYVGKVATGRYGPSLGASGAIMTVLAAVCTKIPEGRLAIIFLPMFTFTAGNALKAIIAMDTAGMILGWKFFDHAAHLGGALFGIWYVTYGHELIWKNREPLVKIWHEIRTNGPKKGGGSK
Please respond with reported FC_240min (fold change of cleavage product, Annotated_Sequence) for every item in the list.
Give bare numbers.

Solved cases (3 shown):
- Sequence data: "MHSPWTMANFLRGP [TDP94, synthetic tetradecapeptide of the 228-peptide library]"
  Observed result: 2284.43
- Sequence data: "AMTDRGWYLAIQAV [TDP15, synthetic tetradecapeptide of the 228-peptide library]"
  Observed result: 689.515
- Sequence data: "INDFLVRTWKMPGL [TDP160, synthetic tetradecapeptide of the 228-peptide library]"
  Observed result: 895.528

Okay, now this sequence:
Ask | Requested field: FC_240min (fold change of cleavage product, Annotated_Sequence). Item: GPKLTYDFWIQNLP [TDP89, synthetic tetradecapeptide of the 228-peptide library]
Reply | 1077.04

###

target: PARLΔ77 (Homo sapiens, UniProt Q9H300); construct: GFP-hexahistidine (behind a TEV cleavage site) (C, cleaved yes); made in house; host or cells: Pichia pastoris; experiment: Multiplex substrate profiling by mass spectrometry (MSP-MS), PARLΔ77 in proteoliposomes; assay type: biochemical; details: PARLΔ77 1 μM in PL containing PC, PE and CL, peptides 0.5 μM each, pH 7.0, without DDM, 60 vs 0 min, LC-MS/MS, quadruplicate
Endpoint label: FC_60min (fold change of cleavage product, Annotated_Sequence)
Numbers only.

Solved cases (4 shown):
- Sequence data: "MHSPWTMANFLRGP [TDP94, synthetic tetradecapeptide of the 228-peptide library]"
  Observed result: 254.488
- Sequence data: "QAVRPNGMYWHYLM [TDP216, synthetic tetradecapeptide of the 228-peptide library]"
  Observed result: 43.2174
- Sequence data: "GQYPMFVKISTTHW [TDP96, synthetic tetradecapeptide of the 228-peptide library]"
  Observed result: 35.4935
- Sequence data: "NVDWTAPQLIEYLD [TDP138, synthetic tetradecapeptide of the 228-peptide library]"
  Observed result: 42.87

Okay, now this sequence:
Ask | Requested field: FC_60min (fold change of cleavage product, Annotated_Sequence). Item: AETSIKVFMPYYGH [TDP91, synthetic tetradecapeptide of the 228-peptide library]
Reply | 43.5042
